Target: Human R PK (Homo sapiens, UniProt P30613)
Construct: His tag; made in house; host or cells: E. coli BL-21 (DE3); construct a gift of Dr. L. Cantley
Sequence (P30613 whole entry): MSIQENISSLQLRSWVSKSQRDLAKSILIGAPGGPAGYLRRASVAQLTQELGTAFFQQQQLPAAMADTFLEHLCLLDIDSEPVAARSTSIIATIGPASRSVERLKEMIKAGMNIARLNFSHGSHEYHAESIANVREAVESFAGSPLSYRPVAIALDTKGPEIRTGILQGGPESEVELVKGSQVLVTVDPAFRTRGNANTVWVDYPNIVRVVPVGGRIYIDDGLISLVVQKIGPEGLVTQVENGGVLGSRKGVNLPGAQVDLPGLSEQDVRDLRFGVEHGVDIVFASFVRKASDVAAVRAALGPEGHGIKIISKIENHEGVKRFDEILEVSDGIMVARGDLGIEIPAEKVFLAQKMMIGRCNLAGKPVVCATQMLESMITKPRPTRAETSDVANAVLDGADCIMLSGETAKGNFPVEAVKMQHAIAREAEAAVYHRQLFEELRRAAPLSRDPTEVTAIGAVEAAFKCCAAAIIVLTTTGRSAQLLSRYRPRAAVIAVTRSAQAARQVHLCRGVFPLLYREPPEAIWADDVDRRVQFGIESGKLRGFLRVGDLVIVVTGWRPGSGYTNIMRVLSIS
Experiment: Human PK selectivity, LDH-coupled enzyme assay
Format: biochemical
Conditions: at 10 μM; read-out: % Inhibition Human R
Criterion: inhibition at 10 µM meeting or surpassing 20%. Met: Yes. Not met: No.

Some solved entries appear below for comparison.
COMPOUND	CATEGORY
Brc1ccc2cc(-c3cc4ccc(Br)cc4[nH]3)[nH]c2c1 [Compound 10b, 6,6′-Dibromo-1H,1′H-2,2′-biindole]	No
Brc1ccc2[nH]c(-c3cc4cc(Br)ccc4[nH]3)cc2c1 [Compound 10i, 5,5′-Bibromo-1H,1′H-2,2′-biindole]	Yes
Brc1ccc2c(c1)cc(-c1cc3ccc(Br)cc3[nH]1)n2CCN1CCOCC1 [Compound 20b]	Yes
COc1cc(-c2cc3ccccc3[nH]2)ccc1-c1cc2ccc(Br)cc2[nH]1 [Compound 33e]	No
Brc1ccc2cc(CCc3cc4ccc(Br)cc4[nH]3)[nH]c2c1 [Compound 28a, 1,2-bis(6-bromo-1H-indol-2-yl)ethane]	Yes

Is inhibition at 10 µM for `OCCn1c(-c2cc3ccc(Br)cc3[nH]2)cc2cc(Br)ccc21` at or above 20%?
Yes

Is inhibition at 10 µM for Brc1ccc2cc(-c3cc4cc(Br)c(Br)cc4[nH]3)[nH]c2c1 [Compound 10k, 5,6,6′-Tribromo-1H,1′H-2,2′-biindole] at or above 20%?
Yes

###

Provide the recorded IC50 for the entries that follow.
Target: MRSA PK (Staphylococcus aureus, UniProt Q6GG09)
Construct: His tag (pET-28a(+) vector) (N); made in house; host or cells: E. coli BL-21 (DE3)
Sequence (Q6GG09 whole entry): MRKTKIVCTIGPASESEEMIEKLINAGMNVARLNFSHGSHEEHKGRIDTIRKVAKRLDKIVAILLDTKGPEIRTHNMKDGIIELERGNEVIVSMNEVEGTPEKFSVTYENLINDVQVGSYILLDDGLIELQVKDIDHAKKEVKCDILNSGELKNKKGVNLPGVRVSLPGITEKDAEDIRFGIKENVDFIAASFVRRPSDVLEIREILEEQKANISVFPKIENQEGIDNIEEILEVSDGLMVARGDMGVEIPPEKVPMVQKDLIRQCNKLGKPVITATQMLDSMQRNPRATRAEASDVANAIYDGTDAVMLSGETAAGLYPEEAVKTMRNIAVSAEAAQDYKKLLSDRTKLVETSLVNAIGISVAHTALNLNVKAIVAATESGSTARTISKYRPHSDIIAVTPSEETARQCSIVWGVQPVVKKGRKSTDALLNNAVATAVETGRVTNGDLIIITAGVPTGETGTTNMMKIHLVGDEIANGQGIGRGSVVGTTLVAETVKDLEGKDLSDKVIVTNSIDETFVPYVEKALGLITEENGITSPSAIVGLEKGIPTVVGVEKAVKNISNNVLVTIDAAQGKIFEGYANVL
Test: MRSA PK activity, continuous LDH-coupled assay
Type: biochemical, S. aureus (MRSA strain Sanger 252)
One number for each entry, in µM.

Here is how some compounds turned out for IC50.
COMPOUND	SCALE UNIT	IC50
Brc1ccc2cc(-c3ccc(-c4ccn[nH]4)s3)[nH]c2c1	µM	0.0745
COC(=O)c1c(-c2cc3cc(Br)c(Br)cc3[nH]2)[nH]c2cc(Br)c(Br)cc12 [Compound 39d]	µM	0.0021
CC(=O)c1c(CCc2ccccc2)[nH]c2cc(Br)ccc12 [Compound 39a]	µM	0.608

In the following, a different compound is considered.
Write down the reported IC50 of CC(=O)c1c(CCc2ccc(Cl)cc2)[nH]c2cc(Br)ccc12 [Compound 39b] , test system: MRSA PK (Staphylococcus aureus, UniProt Q6GG09).
0.028

###

Biological target: MRSA PK (Staphylococcus aureus, UniProt Q6GG09)
Construct: His tag (pET-28a(+) vector) (N); made in house; host or cells: E. coli BL-21 (DE3)
Assay: MRSA PK activity, continuous LDH-coupled assay
Format: biochemical, S. aureus (MRSA strain Sanger 252)
Conditions: read-out: % Inhibition MRSA PK
QUANTITY MEASURED: inhibition at 10 µM (%)
Numbers only, in %.

// each listed compound needs a value for inhibition at 10 µM
1. CN1CCN(CCn2c(-c3cc4ccc(Br)cc4[nH]3)cc3cc(Br)ccc32)CC1 [Compound 20a]
2. Brc1ccc2c(c1)cc(-c1cc3ccc(Br)cc3[nH]1)n2CCN1CCOCC1 [Compound 20b]
3. Brc1ccc2cc(-c3nc4ccccc4s3)[nH]c2c1 [Compound 22a]
4. Cn1c(-c2cc3ccc(Br)cc3[nH]2)cc2cc(Br)ccc21 [Compound 12a]
5. COc1cc(-c2cc3ccccc3[nH]2)ccc1-c1cc2ccc(Br)cc2[nH]1 [Compound 33e]
6. OCCn1c(-c2cc3ccc(Br)cc3[nH]2)cc2cc(Br)ccc21 [Compound 17]

[100, 101, 89.8, 99, 62.2, 101]

// each listed compound needs a value for inhibition at 10 µM
1. Brc1ccc2[nH]c(-c3cc4cc(Br)ccc4[nH]3)cc2c1 [Compound 10i, 5,5′-Bibromo-1H,1′H-2,2′-biindole]
2. Brc1ccc2cc(-c3cc4cc(Br)c(Br)cc4[nH]3)[nH]c2c1 [Compound 10k, 5,6,6′-Tribromo-1H,1′H-2,2′-biindole]
3. Brc1ccc2[nH]c(-c3cc4ccc(Br)cc4[nH]3)cc2c1 [Compound 10c, 5,6-Bibromo-1H,1′H-2,2′-biiindole]
4. Brc1ccc2cc(CCc3cc4ccc(Br)cc4[nH]3)[nH]c2c1 [Compound 28a, 1,2-bis(6-bromo-1H-indol-2-yl)ethane]
5. Brc1ccc2cc(-c3cc4ccc(Br)cc4[nH]3)[nH]c2c1 [Compound 10b, 6,6′-Dibromo-1H,1′H-2,2′-biindole]

1. 71
2. 94.1
3. 97.8
4. 93.4
5. 84.9

###

Tested on: S. aureus ATCC 29213
Assay: In vitro susceptibility, broth microdilution MIC
Assay type: cell-based, Staphylococcus aureus
Conditions: Staphylococcus aureus, ATCC29213, Tables 1-6 and text; minimum concentration to give >98% inhibition of growth; read-out: MIC
QUANTITY MEASURED: MIC

COMPOUND	TARGET SYSTEM	MIC
Brc1ccc(-c2c[nH]c3cc(Br)ccc23)cc1	S. aureus ATCC 29213	2 µg/mL
Brc1ccc2c(c1)cc(-c1cc3ccc(Br)cc3[nH]1)n2CCN1CCOCC1 [Compound 20b]	S. aureus ATCC 29213	> 64 µg/mL
Brc1ccc2cc(/C=C/c3ccc4ccccc4n3)[nH]c2c1	S. aureus ATCC 29213	> 64 µg/mL
Brc1ccc(-c2cccc(-c3cc4ccccc4[nH]3)c2)cc1	S. aureus ATCC 29213	> 64 µg/mL
Brc1ccc2cc(-c3cc4ccccc4s3)[nH]c2c1 [Compound 22c]	S. aureus ATCC 29213	> 64 µg/mL
COc1ccc2[nH]c(-c3cc4ccc(Br)cc4[nH]3)cc2c1 [Compound 10f, 6′-Bromo-5-methoxy-1H,1′H-2,2′-biindole]	S. aureus ATCC 29213	> 64 µg/mL
O=C(Nc1nc2ccc(Br)cc2[nH]1)c1cc2ccc(Br)cc2[nH]1	S. aureus ATCC 29213	> 64 µg/mL
Brc1ccc2[nH]c(-c3nc4ccc(Br)cc4s3)cc2c1 [Compound 22g]	S. aureus ATCC 29213	> 64 µg/mL

// each listed compound needs a value for MIC
1. O=C(Nc1nc2ccc(Br)cc2[nH]1)c1cc2cc(Br)ccc2[nH]1
2. O=C(Nc1nc2cc(Br)ccc2s1)c1cc2ccccc2[nH]1
3. COc1ccc(Br)cc1C(=O)Nc1nc2ccc(Br)cc2s1

1: > 64 µg/mL; 2: > 64 µg/mL; 3: > 64 µg/mL

// each listed compound needs a value for MIC
1. Oc1ccc(Br)cc1/C=N/c1nc2ccc(Br)cc2s1
2. Brc1ccc(/C=C/c2cc3ccc(Br)cc3[nH]2)cc1 [Compound 36b, (E)-6-bromo-2-(4-bromostyryl)-1H-indole]
3. Brc1ccc2cc(CCc3cc4ccc(Br)cc4[nH]3)[nH]c2c1 [Compound 28a, 1,2-bis(6-bromo-1H-indol-2-yl)ethane]
4. Brc1ccc2c(c1)cc(-c1cc3ccc(Br)cc3[nH]1)n2CCN1CCCCC1
5. CC(C)C(=O)c1c(CCc2ccc(Cl)cc2)[nH]c2cc(Br)ccc12 [Compound 39c]
6. CC(=O)c1c(CCc2ccc(Cl)cc2)[nH]c2cc(Br)ccc12 [Compound 39b]

64 µg/mL
> 64 µg/mL
> 64 µg/mL
> 64 µg/mL
4 µg/mL
4 µg/mL

###

Assay: Pharmacokinetic study
Type: in vivo, female CD-1 mice
Conditions: female, CD-1, mouse, plasma; IV administration at 3 mg/kg
QUANTITY MEASURED: half-life (h)
Numbers only, in h.

Could you tell me which half-life is on file for `O=C(c1c(-c2cc3cc(Cl)ccc3[nH]2)[nH]c2cc(Br)ccc12)C(F)(F)F` ?
2.27

###

Target: MRSA PK (Staphylococcus aureus, UniProt Q6GG09)
Construct: His tag (pET-28a(+) vector) (N); made in house; host or cells: E. coli BL-21 (DE3)
Experiment: MRSA PK activity, continuous LDH-coupled assay
Assay type: biochemical, S. aureus (MRSA strain Sanger 252)
pIC50: −log10 of the molar value.
Provide the recorded pIC50 for the entries that follow.

Here is how some compounds turned out for pIC50.
COMPOUND	pIC50
COC(=O)c1c(NCc2ccc(Cl)cc2)[nH]c2cc(Br)ccc12	< 6.00
Clc1cnc(C#Cc2cc3ccc(Br)cc3[nH]2)nc1	7.00 to 7.30
COc1ccc(/C=C/c2[nH]c3cc(Br)ccc3c2C(=O)O)nc1	< 6.00
O=C(c1c(CCc2cc(Cl)cc(Cl)c2)[nH]c2cc(Br)ccc12)C(F)(F)F	< 6.00
O=C(Nc1ccc(Br)cc1)c1cc2ccc(Br)cc2[nH]1	8.01

// each listed compound needs a value for pIC50
1. O=C(c1c(/C=C/c2ccc(Cl)cc2)[nH]c2cc(Br)ccc12)C(F)(F)F
2. Brc1ccc2c(c1)cc(-c1cc3ccc(Br)cc3[nH]1)n2CCN1CCCCC1
3. Brc1ccc2cc(/C=C/c3cc(-c4ccccc4)on3)[nH]c2c1
4. O=C(c1c(/C=C/c2cn3ccccc3n2)[nH]c2cc(Br)ccc12)C(F)(F)F

1: 6.00 to 7.00; 2: 8.43; 3: < 4.00; 4: < 6.00

// each listed compound needs a value for pIC50
1. O=C(O)c1cc(Br)cc2[nH]c(CCc3ccc(Cl)cc3)cc12
2. O=C(c1c(/C=C/c2ccc(Cl)cc2)[nH]c2cc(Br)c(F)cc12)C(F)(F)F
3. O=C(Nc1cc(Br)ccc1O)c1cc2ccc(Br)cc2[nH]1
4. COc1ccc(/C=C/c2cc3ccc(Br)cc3[nH]2)cn1
5. CC(C)C(=O)c1c(CCc2ccc(Cl)cc2)[nH]c2cc(Br)ccc12 [Compound 39c]
6. Cc1ncc(/C=C/c2cc3ccc(Br)cc3[nH]2)s1

["6.00 to 7.00", "6.00 to 7.00", 7.91, "< 6.00", 7.55, "< 6.00"]

// each listed compound needs a value for pIC50
1. Cc1nc(/C=C/c2cc3ccc(Br)cc3[nH]2)co1
2. O=C(c1c(CCc2ccc(Cl)cc2)[nH]c2cc(Br)ccc12)C(F)(F)F

["< 4.00", "6.00 to 7.00"]

Could you tell me which pIC50 is on file for `FC(F)(F)C1(c2ccc(-c3cc4ccc(Br)cc4[nH]3)cc2)N=N1` ?
7.11

Origin of the recorded values: patent US20170216252A1
